System: M. aurum
TEST: Microdilution broth resazurin assay, MIC
Type: cell-based, Mycolicibacterium aurum
MEASUREMENT PARAMETERS: Mycolicibacterium aurum, read-out: Antimycobacterial Activity MIC M. aurum
Please go through the items and note down their MIC.

Which MIC value is on record for `Cc1nc2cc(Cl)ccc2c(=O)n1/N=C/c1ccc(N(C)C)cc1` ? ≥ 15.6 µg/mL

Which MIC value is on record for `Cc1nc2cc(Cl)ccc2c(=O)n1/N=C/c1cccc(Cl)c1` ? ≥ 62.5 µg/mL

Which MIC value is on record for `Cc1nc2cc(Cl)ccc2c(=O)n1/N=C/c1ccccc1Cl` ? ≥ 31.2 µg/mL

Which MIC value is on record for `Cc1nc2cc(Cl)ccc2c(=O)n1/N=C/c1ccccc1F` ? ≥ 31.2 µg/mL

More entries:
Which MIC value is on record for `Cc1nc2cc(Cl)ccc2c(=O)n1/N=C/C=C/c1ccccc1` ? ≥ 31.2 µg/mL

* * *

Please go through the items and note down their MIC.
Test system: M. smegmatis
TEST: Microdilution broth resazurin assay, MIC
Type: cell-based, Mycolicibacterium smegmatis
MEASUREMENT PARAMETERS: Mycolicibacterium smegmatis, read-out: Antimycobacterial Activity MIC M. smeg.

# value lookup — system M. smegmatis, readout MIC, item Cc1nc2cc(Cl)ccc2c(=O)n1/N=C/c1ccc(O)cc1 [Compound 37] ≥ 62.5 µg/mL

# value lookup — system M. smegmatis, readout MIC, item Cc1nc2cc(Cl)ccc2c(=O)n1/N=C/c1ccncc1 [Compound 31] ≥ 31.2 µg/mL

# value lookup — system M. smegmatis, readout MIC, item Cc1nc2cc(Cl)ccc2c(=O)n1/N=C/c1ccccc1[N+](=O)[O-] [Compound 26] ≥ 62.5 µg/mL

# value lookup — system M. smegmatis, readout MIC, item Cc1nc2cc(Cl)ccc2c(=O)n1/N=C/c1ccccc1Br [Compound 52] ≥ 31.2 µg/mL

# value lookup — system M. smegmatis, readout MIC, item Cc1nc2cc(Cl)ccc2c(=O)n1/N=C/c1ccccn1 [Compound 29] ≥ 31.2 µg/mL

# value lookup — system M. smegmatis, readout MIC, item COc1ccc(/C=N/n2c(C)nc3cc(Cl)ccc3c2=O)cc1 [Compound 40] ≥ 15.6 µg/mL

# value lookup — system M. smegmatis, readout MIC, item COc1ccc(Cn2c(C)nc3cc(Cl)ccc3c2=O)cc1 [Compound 17] 31.2 µg/mL

# value lookup — system M. smegmatis, readout MIC, item Cc1nc2cc(Cl)ccc2c(=O)n1Cc1ccc2ccccc2c1 [Compound 23] ≥ 125 µg/mL

# value lookup — system M. smegmatis, readout MIC, item Cc1nc2cc(Cl)ccc2c(=O)n1Cc1ccc(O)cc1 [Compound 14] 62.5 µg/mL

// below: MIC requested for another compound
# value lookup — system M. smegmatis, readout MIC, item Cc1nc2cc(Cl)ccc2c(=O)n1/N=C/c1ccccc1F [Compound 42] ≥ 31.2 µg/mL

* * *

Please go through the items and note down their IC50.
System: MRC-5
TEST: cells
MEASUREMENT PARAMETERS: Homo sapiens, MRC5, 72 h, read-out: IC50 for MRC-5 [72 h]

Example cases with answers are listed next.
Which IC50 value is on record for Cc1nc2cc(Cl)ccc2c(=O)n1Cc1ccc(Cl)c(Cl)c1 [Compound 24] ? > 50 µM

Which IC50 value is on record for COc1ccc(Cn2c(C)nc3cc(Cl)ccc3c2=O)cc1 [Compound 17] ? > 100 µM

Which IC50 value is on record for Cc1nc2cc(Cl)ccc2c(=O)n1Cc1cccc(Cl)c1 [Compound 21] ? > 50 µM

// below: IC50 requested for another compound
Which IC50 value is on record for Cc1nc2cc(Cl)ccc2c(=O)n1Cc1ccc(F)cc1 [Compound 19] ? > 100 µM
